- tested.on: T1, sIL-6R (soluble IL-6 receptor; SBH Sciences) (human, UniProt P08887 20-365)
- T1 construct: also called human IL-6R
- T1 sequence: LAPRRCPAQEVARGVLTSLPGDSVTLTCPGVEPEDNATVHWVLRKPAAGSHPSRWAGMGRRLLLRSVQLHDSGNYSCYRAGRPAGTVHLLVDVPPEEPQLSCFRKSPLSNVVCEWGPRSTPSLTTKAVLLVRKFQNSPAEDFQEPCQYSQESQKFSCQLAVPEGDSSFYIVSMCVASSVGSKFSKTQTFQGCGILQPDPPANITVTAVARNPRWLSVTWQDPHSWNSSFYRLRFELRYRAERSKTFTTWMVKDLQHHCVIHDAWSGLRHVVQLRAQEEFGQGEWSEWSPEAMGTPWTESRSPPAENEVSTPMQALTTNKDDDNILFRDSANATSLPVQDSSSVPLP
- protocol: SPR (BIAcore 3000), antibody on chip, sIL-6R analyte, 25 C
pKd: −log10 of the molar value.

# binder, pKd
records = [
    ("11# (antibody, human IgG1, kappa, V domains shown, also called Sample # 11) VH: QVQLQESGPGLVRPSQTLSLTCTVSGYSITSDHAWSWVRQPPGRGLEWIGFISYSGITTYNPSLKSRVTMLRDTSKNQFSLRLSSVTAADTAVYYCARSLARATAMDYWGQGSLVTVSS VL: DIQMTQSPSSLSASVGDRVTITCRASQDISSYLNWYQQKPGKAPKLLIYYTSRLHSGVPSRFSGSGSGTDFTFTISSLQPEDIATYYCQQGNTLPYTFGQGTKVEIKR", 9.95),
    ("31# (antibody, human IgG1, kappa, V domains shown, also called Sample # 31) VH: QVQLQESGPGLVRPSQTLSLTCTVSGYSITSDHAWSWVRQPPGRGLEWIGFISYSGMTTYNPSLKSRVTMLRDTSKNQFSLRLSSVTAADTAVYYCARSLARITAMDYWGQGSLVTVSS VL: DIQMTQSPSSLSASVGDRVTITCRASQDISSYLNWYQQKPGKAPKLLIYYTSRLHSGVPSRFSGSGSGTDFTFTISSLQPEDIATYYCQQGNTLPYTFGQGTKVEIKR", 9.81),
    ("Tocilizumab (antibody, human IgG1, kappa, V domains shown, also called 25; 25(control)) VH: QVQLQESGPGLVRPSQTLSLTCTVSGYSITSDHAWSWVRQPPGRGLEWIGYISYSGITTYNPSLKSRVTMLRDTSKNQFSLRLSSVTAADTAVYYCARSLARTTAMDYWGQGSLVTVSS VL: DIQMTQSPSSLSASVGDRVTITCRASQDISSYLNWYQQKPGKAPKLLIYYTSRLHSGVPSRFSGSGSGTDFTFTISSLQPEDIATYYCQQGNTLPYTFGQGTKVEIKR", 8.77),
    ("18# (antibody, human IgG1, kappa, V domains shown, also called Sample # 18) VH: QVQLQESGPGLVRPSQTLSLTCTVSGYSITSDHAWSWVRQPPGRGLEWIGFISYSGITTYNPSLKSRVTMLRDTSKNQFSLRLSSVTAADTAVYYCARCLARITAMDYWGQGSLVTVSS VL: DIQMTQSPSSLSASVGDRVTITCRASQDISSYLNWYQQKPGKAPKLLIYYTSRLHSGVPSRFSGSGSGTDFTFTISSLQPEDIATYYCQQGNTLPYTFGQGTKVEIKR", 9.78),
    ("45# (antibody, human IgG1, kappa, V domains shown, also called Sample # 45) VH: QVQLQESGPGLVRPSQTLSLTCTVSGYSITSDHAWSWVRQPPGRGLEWIGYISYSGITTYNPSLKSRVTMLRDTSKNQFSLRLSSVTAADTAVYYCARTLARTTAMDYWGQGSLVTVSS VL: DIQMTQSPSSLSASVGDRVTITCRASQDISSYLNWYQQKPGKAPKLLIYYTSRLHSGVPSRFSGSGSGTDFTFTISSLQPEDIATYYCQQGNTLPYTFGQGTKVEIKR", 9.22),
    ("28# (antibody, human IgG1, kappa, V domains shown, also called Sample # 28) VH: QVQLQESGPGLVRPSQTLSLTCTVSGYSITSDHAWSWVRQPPGRGLEWIGFISYSGMTTYNPSLKSRVTMLRDTSKNQFSLRLSSVTAADTAVYYCARSLARTTAMDYWGQGSLVTVSS VL: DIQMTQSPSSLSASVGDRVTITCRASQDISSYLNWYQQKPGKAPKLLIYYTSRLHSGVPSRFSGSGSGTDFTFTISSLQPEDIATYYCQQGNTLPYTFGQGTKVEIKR", 9.39),
    ("15# (antibody, human IgG1, kappa, V domains shown, also called Sample # 15) VH: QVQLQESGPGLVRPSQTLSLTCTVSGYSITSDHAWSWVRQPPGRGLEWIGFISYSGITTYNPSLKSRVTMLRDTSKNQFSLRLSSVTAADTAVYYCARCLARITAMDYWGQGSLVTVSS VL: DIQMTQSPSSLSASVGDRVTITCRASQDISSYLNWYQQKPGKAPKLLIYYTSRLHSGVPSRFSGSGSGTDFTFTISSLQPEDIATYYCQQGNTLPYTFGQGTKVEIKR", 9.70),
    ("17# (antibody, human IgG1, kappa, V domains shown, also called Sample # 17) VH: QVQLQESGPGLVRPSQTLSLTCTVSGYSITSDHAWSWVRQPPGRGLEWIGFISYSGITTYNPSLKSRVTMLRDTSKNQFSLRLSSVTAADTAVYYCARCLARTTAMDYWGQGSLVTVSS VL: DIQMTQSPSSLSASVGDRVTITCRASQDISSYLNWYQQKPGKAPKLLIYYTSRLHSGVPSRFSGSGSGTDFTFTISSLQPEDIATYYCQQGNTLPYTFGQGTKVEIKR", 9.45),
    ("30# (antibody, human IgG1, kappa, V domains shown, also called Sample # 30) VH: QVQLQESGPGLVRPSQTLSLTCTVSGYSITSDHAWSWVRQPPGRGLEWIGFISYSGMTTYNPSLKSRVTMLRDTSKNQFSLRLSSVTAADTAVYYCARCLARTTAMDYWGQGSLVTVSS VL: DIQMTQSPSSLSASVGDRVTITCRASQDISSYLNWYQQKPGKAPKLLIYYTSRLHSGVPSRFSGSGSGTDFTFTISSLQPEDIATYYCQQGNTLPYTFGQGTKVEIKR", 9.59),
    ("16# (antibody, human IgG1, kappa, V domains shown, also called Sample # 16) VH: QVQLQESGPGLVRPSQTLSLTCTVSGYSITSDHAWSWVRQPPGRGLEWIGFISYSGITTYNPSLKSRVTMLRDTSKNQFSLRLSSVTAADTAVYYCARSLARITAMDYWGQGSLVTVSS VL: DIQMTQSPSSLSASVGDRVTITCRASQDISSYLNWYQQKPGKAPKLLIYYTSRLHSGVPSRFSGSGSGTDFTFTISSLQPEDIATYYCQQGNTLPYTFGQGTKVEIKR", 9.73),
]
